# assay-info: Clearance in cancer patient at 40 mg for 60 mins treated 1/8 cycle/day
# Type: ADME, organism-based
# Parameters: dosed compound name LY2090314
# conditions: human, in vivo
property-label: clearance (mL/min)

{"test-smiles": "O=C1NC(=O)C(c2cnc3ccccn23)=C1c1cn2c3c(cc(F)cc13)CN(C(=O)N1CCCCC1)CC2", "property-label": "clearance", "recorded-value": 710}

---

# assay-info: Cmax in cancer patient at 20 mg for 60 mins treated 2/1 cycle/day
# Type: ADME, organism-based
# Set-up: dose 20 mg, dosed compound name LY2090314
# conditions: human, in vivo

{"test-smiles": "O=C1NC(=O)C(c2cnc3ccccn23)=C1c1cn2c3c(cc(F)cc13)CN(C(=O)N1CCCCC1)CC2", "units-label": "ng/mL", "Cmax": 271}
